UniProtKB P23743: reported IC50 for various molecules.
Sequence (P23743 whole entry): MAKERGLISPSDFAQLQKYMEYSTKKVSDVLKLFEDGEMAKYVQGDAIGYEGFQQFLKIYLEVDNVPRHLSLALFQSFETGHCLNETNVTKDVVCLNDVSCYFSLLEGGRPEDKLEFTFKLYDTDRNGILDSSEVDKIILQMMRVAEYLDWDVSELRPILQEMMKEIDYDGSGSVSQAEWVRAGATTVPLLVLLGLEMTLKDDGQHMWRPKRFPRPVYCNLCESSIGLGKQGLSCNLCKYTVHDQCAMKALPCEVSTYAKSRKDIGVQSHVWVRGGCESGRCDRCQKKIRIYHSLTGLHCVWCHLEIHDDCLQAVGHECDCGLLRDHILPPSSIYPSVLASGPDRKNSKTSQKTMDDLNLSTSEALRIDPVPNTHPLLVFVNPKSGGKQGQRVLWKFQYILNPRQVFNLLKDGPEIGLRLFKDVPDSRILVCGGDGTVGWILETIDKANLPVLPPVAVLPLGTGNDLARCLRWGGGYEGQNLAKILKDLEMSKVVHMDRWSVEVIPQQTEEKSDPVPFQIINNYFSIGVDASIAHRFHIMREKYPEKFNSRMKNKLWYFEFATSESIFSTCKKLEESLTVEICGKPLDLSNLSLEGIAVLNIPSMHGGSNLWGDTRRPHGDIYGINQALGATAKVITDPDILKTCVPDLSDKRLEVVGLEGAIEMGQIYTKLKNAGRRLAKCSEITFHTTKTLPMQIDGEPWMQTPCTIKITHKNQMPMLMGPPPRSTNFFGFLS
VALUE KIND: IC50 (µM)

[[record]]
molecule = "COCc1cc(F)ccc1C(C)N1C[C@H](C)N(c2cc(=O)n(C)c3cn(CC#N)nc23)C[C@H]1C (single isomer, unassigned) [Compound A29b]"
scale_unit = "µM"
censoring_operator = "="
recorded_number = 4.06

[[record]]
molecule = "CC[C@H]1CN(C(C)c2ccc3nccnc3c2)[C@H](CC)CN1c1cc(=O)n(CC(F)F)c2cn(CC#N)nc12 (single isomer, unassigned) [Compound A139a]"
scale_unit = "µM"
censoring_operator = ">"
recorded_number = 10

[[record]]
molecule = "Cc1cnc2ccc(C(C)N3C[C@H](C)N(c4cc(=O)n(C)c5cn(CC#N)nc45)C[C@H]3C)cc2n1 (stereo partly drawn) [Compound A269 (RII)]"
scale_unit = "µM"
censoring_operator = ">"
recorded_number = 10

[[record]]
molecule = "CC[C@H]1CN(C(C)c2ccc(C)c(C)n2)[C@H](CC)CN1c1cc(=O)n(C)c2cn(CC#N)nc12 (stereo partly drawn)"
scale_unit = "µM"
censoring_operator = "="
recorded_number = 0.166

[[record]]
molecule = "Cc1c2c(nn1CC#N)c(N1C[C@@H](C)N(C(C)c3ccc(F)cc3C(F)(F)F)C[C@@H]1C)nc(=O)n2C (single isomer, unassigned) [Compound A267a]"
scale_unit = "µM"
censoring_operator = ">"
recorded_number = 10

[[record]]
molecule = "CC(c1ccc2cccnc2c1)N1C[C@H](C)N(c2cc(=O)n(C)c3cn(CC#N)nc23)C[C@H]1C (stereo partly drawn)"
scale_unit = "µM"
censoring_operator = "="
recorded_number = 2.3

